System: mouse leukemia L1210
Test: Antitumor activity test on mouse leukemia L1210 in vivo
Conditions: L1210, average survival time treated/control ×100, i.p. once a day for 5 days
resultType: max (T/C) (%)
Form entry: value (%) — number only.

INSERT INTO measurements (compound, resulttype, measured) VALUES
  ('CCC1CCC[NH2+][Pt-2]([Cl])([Cl])[NH2+]1 (racemic) [Compound No. 10]', 'max (T/C)', 210),
  ('CCC1CC[NH2+][Pt-2]([Cl])([Cl])[NH2+]C1 (racemic) [Compound No. 29]', 'max (T/C)', 261),
  ('CC1CC[NH2+][Pt-2]([Cl])([Cl])[NH2+]C1 (racemic) [Compound No. 13]', 'max (T/C)', 187);

# input for lookup
Task: Fill in the blank: the reported max (T/C) of CCC(CN)CCN.O=C([O-])C1(C(=O)[O-])CCC1.[Pt+2] [Compound No. 32] is ____.
Result: 275
